- target.system: CTX-M-15, lysate of KP1009 (Escherichia coli)
- Sequence (Q9EXV5 entry or part of it): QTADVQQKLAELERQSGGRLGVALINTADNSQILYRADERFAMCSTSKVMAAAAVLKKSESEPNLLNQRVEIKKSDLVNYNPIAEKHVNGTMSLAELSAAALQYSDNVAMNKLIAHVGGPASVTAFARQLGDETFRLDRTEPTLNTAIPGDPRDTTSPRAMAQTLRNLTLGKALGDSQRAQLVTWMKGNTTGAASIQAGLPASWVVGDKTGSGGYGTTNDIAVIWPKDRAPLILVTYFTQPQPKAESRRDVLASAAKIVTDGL
- assay.overview: Inhibition of ceftazidime hydrolysis by bacterial lysate
pIC50: −log10 of the molar value.
Listing: pIC50 of selected molecules

{"molecule": "C[C@]1(Cn2ccnn2)[C@H](C(=O)O)N2C(=O)C[C@H]2S1(=O)=O [Tazobactam, reference compound]", "pIC50": "> 6.48"}
{"molecule": "O=C(O)CC1CC[C@H](NC(=O)C2CC2)B(O)O1 (stereo partly drawn)", "pIC50": "< 5.38"}
{"molecule": "CC(=O)N[C@H]1CCC(CC(=O)O)OB1O (stereo partly drawn)", "pIC50": "< 5.33"}
{"molecule": "Cl.N[C@H]1CCC(CC(=O)O)OB1O (stereo partly drawn) [Compound 7, hydrochloride]", "pIC50": "5.32 to 6.32"}
{"molecule": "O=C(O)C[C@@H]1CC[C@H](NC(=O)Cc2ccccc2)B(O)O1", "pIC50": "5.46 to 6.46"}

Exercise: I'd like to know its pIC50. The molecule in question is "O=C(O)C[C@@H]1CC[C@H](NC(=O)Cc2cccs2)B(O)O1"
Key: > 6.47

###

Listing: pIC50 of selected molecules
- target.system: DHA-1, lysate of EC1014 (Escherichia coli)
- assay.overview: Inhibition of ceftazidime hydrolysis by bacterial lysate
- condition.context: read-out: IC50 of inhibition of Ceftazidime hydrolysis; EC1014 DHA-1
pIC50: −log10 of the molar value.

Use these answered entries as a reference point.
{"molecule": "Cl.N[C@H]1CCC(CC(=O)O)OB1O (some centres unmarked) [Compound 7, hydrochloride]", "pIC50": "< 5.32"}
{"molecule": "O=C(O)C[C@@H]1CC[C@H](NC(=O)Cc2ccccc2)B(O)O1", "pIC50": "< 5.46"}
{"molecule": "CC(=O)N[C@H]1CCC(CC(=O)O)OB1O (some centres unmarked)", "pIC50": "< 5.33"}
{"molecule": "O=C(O)CC1CC[C@H](NC(=O)C2CC2)B(O)O1 (some centres unmarked)", "pIC50": "< 5.38"}

Exercise: I'd like to know its pIC50. The molecule in question is "O=C(O)C[C@@H]1CC[C@H](NC(=O)Cc2cccs2)B(O)O1"
Key: 5.47 to 6.47

###

- target.system: KPC-3, lysate of EC1007 (Klebsiella pneumoniae, UniProt Q9F663, H272Y)
- Sequence (Q9F663 whole entry H272Y, looked up): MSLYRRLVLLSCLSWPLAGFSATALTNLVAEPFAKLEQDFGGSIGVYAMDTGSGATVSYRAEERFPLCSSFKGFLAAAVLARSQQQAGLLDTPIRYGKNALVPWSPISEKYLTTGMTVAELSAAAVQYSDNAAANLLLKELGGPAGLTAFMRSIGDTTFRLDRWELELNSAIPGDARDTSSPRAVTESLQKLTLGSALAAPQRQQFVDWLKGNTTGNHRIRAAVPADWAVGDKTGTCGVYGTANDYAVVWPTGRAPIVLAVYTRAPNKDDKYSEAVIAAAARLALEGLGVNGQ
- assay.overview: Inhibition of biapenem hydrolysis by bacterial lysate
endpoint.name: IC50

Exercise: I'd like to know its IC50. The compound in question is Cl.N[C@H]1CCC(CC(=O)O)OB1O (stereo partly shown) [Compound 7, hydrochloride]
Key: > 4.77 µM

###

- System: strains expressing class A ESBLs
- Assay type: cell-based
endpoint.name: MPC4 TEM-26 ec304

Exercise: I'd like to know its MPC4 TEM-26 ec304. The molecule in question is C[C@]1(Cn2ccnn2)[C@H](C(=O)O)N2C(=O)C[C@H]2S1(=O)=O [Tazobactam, reference compound]
Key: 1.25 µg/mL

###

Listing: IC50 of selected compounds
- target.system: various β-lactamases (bacterial lysates) (Klebsiella pneumoniae, UniProt Q9F663, H272Y)
- Sequence (Q9F663 whole entry H272Y, looked up): as above
- assay.overview: biochemical
- Assay type: biochemical

Use these answered entries as a reference point.
{"compound": "Nc1nc(CC(=O)N[C@H]2CC[C@@H](CC(=O)O)OB2O)cs1 [Compound 39]", "target.system": "various β-lactamases (bacterial lysates) (Klebsiella pneumoniae, UniProt Q9F663, H272Y)", "IC50": "< 1.6 µM"}
{"compound": "Cc1nc2ccccc2n1CCC(=O)N[C@H]1CC[C@@H](CC(=O)O)OB1O [Compound 55]", "target.system": "various β-lactamases (bacterial lysates) (Klebsiella pneumoniae, UniProt Q9F663, H272Y)", "IC50": "< 1.39 µM"}

For the next question, use this compound.
Exercise: I'd like to know its IC50. The compound in question is C[C@]1(Cn2ccnn2)[C@H](C(=O)O)N2C(=O)C[C@H]2S1(=O)=O [Tazobactam, reference compound]
Key: 2.46 µM

Data provenance: patent US11090319B2
